Cited source for all entries: patent US20030068675

# tested system: T1, ZFP SBS#1120 (synthetic)
# T1 chain: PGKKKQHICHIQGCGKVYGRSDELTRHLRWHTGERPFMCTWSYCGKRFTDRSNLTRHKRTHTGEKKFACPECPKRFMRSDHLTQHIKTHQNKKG
# method: EMSA
# condition description: tags: MBP fusion
measured parameter: pKd
Give bare numbers, as −log10 of the molar value.

Data point: AGGGACGCG (dsDNA) DNA 1: AGGGACGCG DNA 2: CGCGTCCCT ; pKd = 8.56
